All values here come from paper PMC10397247.

systemTested: T1, P2-AA-12HGe-A
T1 chain: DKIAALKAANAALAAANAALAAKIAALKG
experimentNotes: two-hybrid library CCmax;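 note: natural log of median RNA to DNA barcode read ratio; higher means stronger binding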
testSettings: mean of both orientations
quantityMeasured: interaction score
Would you mind answering with just the numeric figure?

Below, each entry is followed by its recorded interaction score result.
Ask: Query: interaction score; subject: DEIAALEASNAALSASNAALSAEIAALEG [P1-AA-12HGe-S]
Result: -0.678

Ask: Query: interaction score; subject: DEIAALEAWNAALWAWNAALWAEIAALEG [P1-AA-12HGe-W]
Result: 1.75

Ask: Query: interaction score; subject: DEIAALEAHNAALHAHNAALHAEIAALEG [P1-AA-12HGe-H]
Result: 0.105

Ask: Query: interaction score; subject: DEIAALEAKNAALKAKNAALKAEIAALEG [P1-AA-12HGe-K]
Result: 1.6

Shift focus to the following entry.
Ask: Query: interaction score; subject: DEIAALEAQNAALQAQNAALQAEIAALEG [P1-AA-12HGe-Q]
Result: 1.99
